Entry source: patent EP4656640A1

# Tgt: IRAK4 (Homo sapiens)
# Test Description: Degradation of IRAK4 in SU-DHL-2 cells (flow cytometry)
# Format: cell-based
# Design: The degradation level of IRAK4 protein in SU-DHL-2 cell line by the compounds was detected by flow cytometry; endogenous in cells; host or cells: SU-DHL-2; OCI-LY3
# Reported Conditions: read-out: SU-DHL-2 DC50
Reported DC50 by item:
Outcome Measure: DC50 (nM)

Compound | Tgt | Outcome Measure | Test Value
Cn1c(=O)n(C2CCC(=O)NC2=O)c2cccc(C#CC(C)(C)N3CC[C@@H](C(=O)N4CCC5(CC4)CC(n4cc(NC(=O)c6cnn7ccc(N8C[C@H]9C[C@@H]8CO9)nc67)c(C(F)F)n4)C5)C3)c21 (stereo partly shown) [Example 54] | IRAK4 (Homo sapiens) | DC50 | 17
Cn1c(=O)n(C2CCC(=O)NC2=O)c2cccc(C#CCO[C@H]3CC[C@@H](C(=O)N4CCC5(CC4)CC(n4cc(NC(=O)c6cnn7ccc(N8C[C@H]9C[C@@H]8CO9)nc67)c(C(F)F)n4)C5)CC3)c21 (stereo partly shown) [Example 72] | IRAK4 (Homo sapiens) | DC50 | 4
Cn1c(=O)n(C2CCC(=O)NC2=O)c2cccc(C#CCN3CCC(CN4CCC5(CC4)CC(n4cc(NC(=O)c6cnn7ccc(N8C[C@H]9C[C@@H]8CO9)nc67)c(C(F)F)n4)C5)CC3=O)c21 (stereo partly shown) [Example 62] | IRAK4 (Homo sapiens) | DC50 | 1.2
COc1cc2nn(C3CCC4(CC3)CCN(CC3CCN(c5ccc6c(c5)C(=O)N(C5CCC(=O)NC5=O)C6=O)CC3)CC4)cc2cc1NC(=O)c1cnc2cccnn12 (stereo not shown) [Example 67] | IRAK4 (Homo sapiens) | DC50 | 45
Cn1c(=O)n(C2CCC(=O)NC2=O)c2cccc(C#CCC3CCC(N4CCC5(CC4)CC(n4cc(NC(=O)c6cnn7ccc(N8C[C@H]9C[C@@H]8CO9)nc67)c(C(F)F)n4)C5)CC3)c21 (stereo partly shown) [Example 35] | IRAK4 (Homo sapiens) | DC50 | 5
Cn1c(=O)n(C2CCC(=O)NC2=O)c2cccc(C#CCOC3CCN(CC4CCC5(CC4)CC(n4cc(NC(=O)c6cnn7ccc(N8C[C@H]9C[C@@H]8CO9)nc67)c(C(F)F)n4)C5)CC3)c21 (stereo partly shown) [Example 61] | IRAK4 (Homo sapiens) | DC50 | 4
Cn1c(=O)n(C2CCC(=O)NC2=O)c2cccc(C#CCOCCCCN3CCC4(CC3)CC(n3cc(NC(=O)c5cnn6ccc(N7C[C@H]8C[C@@H]7CO8)nc56)c(C(F)F)n3)C4)c21 (stereo partly shown) [Example 4] | IRAK4 (Homo sapiens) | DC50 | 8
COc1cc2nn(C3CCC4(CC3)CCN(CC3CCN(c5ccc6c(c5)C(=O)N(C5CCC(=O)NC5=O)C6=O)CC3)CC4)cc2cc1NC(=O)c1cnn2cccnc12 (stereo not shown) [Example 48] | IRAK4 (Homo sapiens) | DC50 | 1
Cn1c(=O)n(C2CCC(=O)NC2=O)c2cccc(C#CC(C)(C)N3CCC(CN4CCC5(CC4)CC(n4cc(NC(=O)c6cnn7ccc(N8C[C@H]9C[C@@H]8CO9)nc67)c(C(F)F)n4)C5)CC3)c21 (stereo partly shown) [Example 34] | IRAK4 (Homo sapiens) | DC50 | 21
Cn1c(=O)n(C2CCC(=O)NC2=O)c2cccc(C#CCOC3CCN(C(=O)N4CCC5(CCC(n6cc(NC(=O)c7cnn8ccc(N9C[C@H]%10C[C@@H]9CO%10)nc78)c(C(F)F)n6)CC5)CC4)CC3)c21 (stereo partly shown) [Example 43] | IRAK4 (Homo sapiens) | DC50 | 61

###

# Test Description: Mouse pharmacokinetics, oral (Experiment 2)
# Format: in vivo, C57BL/6 mice
# Reported Conditions: mice, PO 100 mg/kg, free access to food, plasma

Compound | Cmax
Cn1c(=O)n(C2CCC(=O)NC2=O)c2cccc(C#CCOC34CCC(CN5CCC6(CC5)CC(n5cc(NC(=O)c7cnn8ccc(N9C[C@H]%10C[C@@H]9CO%10)nc78)c(C(F)F)n5)C6)(CC3)CC4)c21 (stereo partly shown) [Example 52] | 2200 ng/mL

###

Each item that follows carries a reported AUC(0-inf).
# Test Description: Mouse pharmacokinetics, oral (Experiment 1)
# Type: in vivo, C57BL/6 mice
# Reported Conditions: mice, PO 100 mg/kg, fasted overnight, plasma
Outcome Measure: AUC(0-inf) (ng·h/mL)

Molecule | Test Value
Cn1c(=O)n(C2CCC(=O)NC2=O)c2cccc(C#CCOC3CCN(C(=O)N4CCC5(CC4)CC(n4cc(NC(=O)c6cnn7ccc(N8C[C@H]9C[C@@H]8CO9)nc67)c(C(F)F)n4)C5)CC3)c21 (stereo partly drawn) [Example 13] | 19200
Cn1c(=O)n(C2CCC(=O)NC2=O)c2cccc(C#CCCN3CCC4(CC3)CC(n3cc(NC(=O)c5cnn6ccc(N7C[C@H]8C[C@@H]7CO8)nc56)c(C(F)F)n3)C4)c21 (stereo partly drawn) [Example 22] | 18400
Cn1c(=O)n(C2CCC(=O)NC2=O)c2cccc(C#CCO[C@H]3CC[C@H](CN4CCC5(CC4)CC(n4cc(NC(=O)c6cnn7ccc(N8C[C@H]9C[C@@H]8CO9)nc67)c(C(F)F)n4)C5)CC3)c21 (stereo partly drawn) [Example 31] | 5460

###

# Tgt: IRAK4 (Homo sapiens)
# Test Description: Degradation of IRAK4 in SU-DHL-2 cells (flow cytometry)
# Format: cell-based
# Design: The degradation level of IRAK4 protein in SU-DHL-2 cell line by the compounds was detected by flow cytometry; endogenous in cells; host or cells: SU-DHL-2; OCI-LY3
# Reported Conditions: SU-DHL-2 cells, 24 hours incubation; read-out: SU-DHL-2 DC50

Compound | DC50 [nM]
Cn1c(=O)n(C2CCC(=O)NC2=O)c2cccc(C#CC(C)(C)N3CCC(C(=O)N4CCC5(CC4)CC(n4cc(NC(=O)c6cnn7ccc(N8C[C@H]9C[C@@H]8CO9)nc67)c(C(F)F)n4)C5)CC3)c21 (stereo partly drawn) | 5
Cn1c(=O)n(C2CCC(=O)NC2=O)c2cccc(C#CCCCN3CCC4(CC3)CC(n3cc(NC(=O)c5cnn6ccc(N7C[C@H]8C[C@@H]7CO8)nc56)c(C(F)F)n3)C4)c21 (stereo partly drawn) | 1
Cn1c(=O)n(C2CCC(=O)NC2=O)c2cccc(C#CCOCC3CC(N4CCC5(CC4)CC(n4cc(NC(=O)c6cnn7ccc(N8C[C@H]9C[C@@H]8CO9)nc67)c(C(F)F)n4)C5)C3)c21 (stereo partly drawn) | 2.7

###

# Tgt: IRAK4 (Homo sapiens)
# Sequence (Q9NWZ3 1-460): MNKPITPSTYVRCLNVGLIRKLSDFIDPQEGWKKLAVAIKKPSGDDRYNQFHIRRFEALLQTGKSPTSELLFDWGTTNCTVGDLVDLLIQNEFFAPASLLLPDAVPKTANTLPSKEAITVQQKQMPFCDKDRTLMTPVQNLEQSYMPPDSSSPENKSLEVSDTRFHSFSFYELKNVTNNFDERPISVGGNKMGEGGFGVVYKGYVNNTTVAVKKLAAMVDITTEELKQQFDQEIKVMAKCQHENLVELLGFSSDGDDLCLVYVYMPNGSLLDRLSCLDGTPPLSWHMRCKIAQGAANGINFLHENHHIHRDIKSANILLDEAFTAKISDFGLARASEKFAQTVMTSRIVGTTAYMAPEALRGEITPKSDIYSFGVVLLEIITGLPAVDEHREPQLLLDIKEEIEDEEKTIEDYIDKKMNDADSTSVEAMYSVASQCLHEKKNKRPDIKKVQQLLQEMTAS
# Test Description: Degradation of IRAK4 in SU-DHL-2 cells (flow cytometry)
# Format: cell-based
# Design: The degradation level of IRAK4 protein in SU-DHL-2 cell line by the compounds was detected by flow cytometry; endogenous in cells; host or cells: SU-DHL-2; OCI-LY3
# Reported Conditions: read-out: SU-DHL-2 DC50
# Description: The degradation level of IRAK4 protein in SU-DHL-2 cell line by the compounds was detected by flow cytometry. Step 2: On day 1, the cells were seeded at a density of 2 × 10^5 cells per well in 100 µL in a 96-well plate. The compounds were dissolved in DMSO to a final concentration of 10 mM, and then diluted with culture medium at a 1:5 concentration gradient to prepare 10 concentrations. […] The flow cytometry data were analyzed using Flowjo software. […]
Reported DC50 maps to class as: Low: < 6 nM; Mid: ≥ 6 nM and < 20 nM; High: ≥ 20 nM

Molecule | Cat
Cn1c(=O)n(C2CCC(=O)NC2=O)c2cccc(C#CCOC3CCN(CC4CCC5(CC4)CCC(n4cc(NC(=O)c6cnn7ccc(N8C[C@H]9C[C@@H]8CO9)nc67)c(C(F)F)n4)CC5)CC3)c21 (stereo partly shown) [Example 68] | High
Cn1c(=O)n(C2CCC(=O)NC2=O)c2cccc(C#CCOC3CN(C(=O)N4CCC5(CCC(n6cc(NC(=O)c7cnn8ccc(N9C[C@H]%10C[C@@H]9CO%10)nc78)c(C(F)F)n6)CC5)CC4)C3)c21 (stereo partly shown) [Example 39] | Mid
Cn1c(=O)n(C2CCC(=O)NC2=O)c2cccc(C#CCOC3CC(N4CCC5(CCC(n6cc(NC(=O)c7cnn8ccc(N9C[C@H]%10C[C@@H]9CO%10)nc78)c(C(F)F)n6)CC5)CC4)C3)c21 (stereo partly shown) [Example 38] | High
COc1cc2nn(C3CC4(CCN(CC5CC(OCC#Cc6cccc7c6n(C)c(=O)n7C6CCC(=O)NC6=O)C5)CC4)C3)cc2cc1C(=O)Nc1cnc2cccnn12 (stereo not shown) [Example 65] | Low
COc1cc2nn(C3CCC4(CC3)CCN(C3CC(OCC#Cc5cccc6c5n(C)c(=O)n6C5CCC(=O)NC5=O)C3)CC4)cc2cc1C(=O)Nc1cnc2cccnn12 (stereo not shown) [Example 64] | Low
Cn1c(=O)n(C2CCC(=O)NC2=O)c2cccc(C#CCOc3ccc(CN4CCC5(CC4)CC(n4cc(NC(=O)c6cnn7ccc(N8C[C@H]9C[C@@H]8CO9)nc67)c(C(F)F)n4)C5)cc3)c21 (stereo partly shown) [Example 57] | High
Cn1c(=O)n(C2CCC(=O)NC2=O)c2cccc(C#CCN3CCC(CN4CCC5(CC4)CC(n4cc(NC(=O)c6cnn7ccc(N8C[C@H]9C[C@@H]8CO9)nc67)c(C(F)F)n4)C5)CC3)c21 (stereo partly shown) [Example 3] | Mid
Cn1c(=O)n(C2CCC(=O)NC2=O)c2cccc(C#CCOC3CCC(N4CCC5(CC4)CC(n4cc(NC(=O)c6cnn7ccc(N8C[C@H]9C[C@@H]8CO9)nc67)c(C(F)F)n4)C5)CC3)c21 (stereo partly shown) [Example 33] | Mid
Cn1c(=O)n(C2CCC(=O)NC2=O)c2cccc(C#CC(C)(C)N3CC[C@H](C(=O)N4CCC5(CC4)CC(n4cc(NC(=O)c6cnn7ccc(N8C[C@H]9C[C@@H]8CO9)nc67)c(C(F)F)n4)C5)C3)c21 (stereo partly shown) [Example 55] | Mid
Cn1c(=O)n(C2CCC(=O)NC2=O)c2cccc(C#CCN3CC[C@H](C(=O)N4CCC5(CC4)CC(n4cc(NC(=O)c6cnn7ccc(N8C[C@H]9C[C@@H]8CO9)nc67)c(C(F)F)n4)C5)C3)c21 (stereo partly shown) [Example 59] | Low
